# System: ScN2a
# PROTOCOL: Inhibition of scrapie prion formation in mouse ScN2a cell line
# Format: functional
EXPERIMENTAL ENDPOINT: Activity (nM)
Please reply with the bare figure in nM and do not write the unit itself.

Q. State the recorded Activity for this entry: O=C(NCCCN1CCN(CCCNc2ccnc3cc(Cl)ccc23)CC1)C1c2ccccc2Oc2ccccc21
A. 300

Q. Now try CCN(CC)CCCC(C)Nc1ccnc2cc(Cl)ccc12 (stereo not given) .
A. 10000

Q. Now try O=C(c1ccc2ccccc2c1)N(CCCN1CCN(CCCNc2ccnc3cc(Cl)ccc23)CC1)CC1CC1 .
A. 300

Q. Now try O=C(NCCCN1CCN(CCCNc2ccnc3cc(Cl)ccc23)CC1)c1ccncc1 .
A. 5000

Q. Now try O=C(NCCCN1CCN(CCCNc2ccnc3cc(Cl)ccc23)CC1)c1cccc(Oc2ccccc2)c1 .
A. 300

----------
# Test system: ScN2a
# PROTOCOL: Inhibition of scrapie prion formation in mouse ScN2a cell line
# Assay type: functional
EXPERIMENTAL ENDPOINT: Activity (nM)
Please reply with the bare figure in nM and do not write the unit itself.

Q. State the recorded Activity for this entry: CC(C)(C)c1ccc(C(=O)NCCCN2CCN(CCCNc3ccnc4cc(Cl)ccc34)CC2)cc1
A. 200

Q. Now try COc1ccc(C(=O)NCCCN2CCN(CCCNc3ccnc4cc(Cl)ccc34)CC2)cc1 .
A. 300

Q. Now try O=S(=O)(NCCCN1CCN(CCCNc2ccnc3cc(Cl)ccc23)CC1)c1ccc(Cl)cc1 .
A. 500

----------
Form field: CC50 (one value per entry).
# PROTOCOL: Toxicity against MRC5 cell line
# Assay type: cell-based
# COND: human, MRC5 cells
Please reply with the bare figure in µM and do not write the unit itself.

[
  {
    "MOLECULE": "O=C(NCCCN1CCN(CCCNc2ccnc3cc(Cl)ccc23)CC1)c1cccc(Oc2ccccc2)c1",
    "EXPERIMENTAL ENDPOINT": "CC50",
    "UNIT ANNOTATION": "µM",
    "TEST RESULT": 5
  },
  {
    "MOLECULE": "CCN(CC)CCCC(C)Nc1ccnc2cc(Cl)ccc12 (stereo not drawn) [CHLOROQUINE]",
    "EXPERIMENTAL ENDPOINT": "CC50",
    "UNIT ANNOTATION": "µM",
    "TEST RESULT": 50
  }
]

Continue with the molecule presented below.
Q. State the recorded CC50 for this entry: COc1ccc(C(=O)NCCCN2CCN(CCCNc3ccnc4cc(Cl)ccc34)CC2)cc1
A. 4

----------
Form field: Activity (one value per entry).
# Test system: ScN2a
# PROTOCOL: Toxicity against ScN2a cell line
# Assay type: cell-based
# COND: mouse
Please reply with the bare figure in nM and do not write the unit itself.

[
  {
    "GIVEN SMILES": "COc1ccc(C(=O)NCCCN2CCN(CCCNc3ccnc4cc(Cl)ccc34)CC2)cc1",
    "Activity [nM]": 3000
  },
  {
    "GIVEN SMILES": "O=C(NCCCN1CCN(CCCNc2ccnc3cc(Cl)ccc23)CC1)c1cccc(Oc2ccccc2)c1",
    "Activity [nM]": 750
  },
  {
    "GIVEN SMILES": "O=C(c1ccc2ccccc2c1)N(CCCN1CCN(CCCNc2ccnc3cc(Cl)ccc23)CC1)CC1CC1",
    "Activity [nM]": 2000
  },
  {
    "GIVEN SMILES": "O=S(=O)(NCCCN1CCN(CCCNc2ccnc3cc(Cl)ccc23)CC1)c1ccc(Cl)cc1",
    "Activity [nM]": 2000
  },
  {
    "GIVEN SMILES": "CC(C)(C)c1ccc(C(=O)NCCCN2CCN(CCCNc3ccnc4cc(Cl)ccc34)CC2)cc1",
    "Activity [nM]": 1000
  }
]

Q. Can you look up Activity on ScN2a for O=C(NCCCN1CCN(CCCNc2ccnc3cc(Cl)ccc23)CC1)C1c2ccccc2Oc2ccccc21 ?
A. 750
